Target: PDE8A (Homo sapiens, UniProt Q9Y233)
Construct: made in house; host or cells: yeast strain BJ2-54 lacking endogenous PDE activity; plasmid W48-2ADH2 (ATCC 98552); crude yeast extract
Sequence (Q9Y233 290-1055 limits assumed): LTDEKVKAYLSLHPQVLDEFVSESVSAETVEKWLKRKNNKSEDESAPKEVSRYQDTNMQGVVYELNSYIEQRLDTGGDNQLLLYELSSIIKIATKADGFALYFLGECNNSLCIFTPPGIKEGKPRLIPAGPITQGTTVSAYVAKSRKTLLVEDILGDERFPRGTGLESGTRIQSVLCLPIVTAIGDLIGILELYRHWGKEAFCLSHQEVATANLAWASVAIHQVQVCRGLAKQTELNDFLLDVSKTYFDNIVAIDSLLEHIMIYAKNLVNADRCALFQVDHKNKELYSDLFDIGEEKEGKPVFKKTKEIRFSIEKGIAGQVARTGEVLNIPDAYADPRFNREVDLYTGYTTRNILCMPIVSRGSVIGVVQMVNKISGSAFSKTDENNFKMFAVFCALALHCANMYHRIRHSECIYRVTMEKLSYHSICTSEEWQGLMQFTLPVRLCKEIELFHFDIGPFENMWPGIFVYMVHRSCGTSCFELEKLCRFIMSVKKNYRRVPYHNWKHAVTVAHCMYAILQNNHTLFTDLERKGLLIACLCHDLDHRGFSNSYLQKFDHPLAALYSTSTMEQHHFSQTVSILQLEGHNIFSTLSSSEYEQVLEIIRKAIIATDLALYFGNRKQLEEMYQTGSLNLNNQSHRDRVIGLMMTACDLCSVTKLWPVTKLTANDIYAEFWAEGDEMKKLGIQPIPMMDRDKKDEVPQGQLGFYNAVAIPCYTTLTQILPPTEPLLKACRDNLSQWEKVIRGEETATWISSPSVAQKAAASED
Experiment: Inhibition of recombinant PDE8A activity (32P-phosphate release from 32P-cAMP)
Assay type: biochemical
Settings: read-out: IC50 for PDE8
Protocol: Frozen cell pellets (0.06 ml) were thawed and suspended in 0.2 ml lysis buffer containing 100 mM MOPS, pH 8.0, 200 mM NaCl, 2 μM […], 2 mM dithiothreitol, and 10 μg/ml each protease inhibitors pepstatin, leupeptin, and aprotinin. Approximately 0.2 ml of 0.5 mm glass beads were added to the cells which were then lysed with four 30-second cycles of vortexing. The lysate was aspirated and the beads were washed twice with 0.3 ml lysis buffer. […]
The following molecules are shown together with reported pIC50 values.
Lab note: report pIC50 as minus log10 of the concentration in molar units, number only.

CCCCCCC(C(C)O)n1cnc2c(N)ncnc21 (stereo not drawn) [EHNA, erythro-9-(2-hydroxy-3-nonyl)adenine]
4.19

From here, focus on the item given below.
Note pIC50 for the molecule shown: CN(C(=O)CCCOc1ccc2[nH]c(=O)ccc2c1)C1CCCCC1 [Cilostamide]
4.92

====

Molecular target: PDE8A (Homo sapiens, UniProt Q9Y233)
Construct: made in house; host or cells: yeast strain BJ2-54 lacking endogenous PDE activity; plasmid W48-2ADH2 (ATCC 98552); crude yeast extract
Assay: Inhibition of recombinant PDE8A activity (32P-phosphate release from 32P-cAMP)
Format: biochemical
Details: IC50 for PDE8 versus IC50 for target family
test readout: Fold Difference
Please reply with the value in numeric form only.

Give Fold Difference for CCCOc1ccc(NS(C)(=O)=O)cc1-c1nc2c(c(C)nn2C)c(=O)[nH]1 [DMPPO]
66

Recall and state the measured Fold Difference for CCCCCCC(C(C)O)n1cnc2c(N)ncnc21 (stereo not drawn) [EHNA, erythro-9-(2-hydroxy-3-nonyl)adenine] .
31

Report measured Fold Difference; entry is CN(C(=O)CCCOc1ccc2[nH]c(=O)ccc2c1)C1CCCCC1 [Cilostamide]
750

====

Biological target: PDE2 (Homo sapiens)
Sequence (O00408 whole entry): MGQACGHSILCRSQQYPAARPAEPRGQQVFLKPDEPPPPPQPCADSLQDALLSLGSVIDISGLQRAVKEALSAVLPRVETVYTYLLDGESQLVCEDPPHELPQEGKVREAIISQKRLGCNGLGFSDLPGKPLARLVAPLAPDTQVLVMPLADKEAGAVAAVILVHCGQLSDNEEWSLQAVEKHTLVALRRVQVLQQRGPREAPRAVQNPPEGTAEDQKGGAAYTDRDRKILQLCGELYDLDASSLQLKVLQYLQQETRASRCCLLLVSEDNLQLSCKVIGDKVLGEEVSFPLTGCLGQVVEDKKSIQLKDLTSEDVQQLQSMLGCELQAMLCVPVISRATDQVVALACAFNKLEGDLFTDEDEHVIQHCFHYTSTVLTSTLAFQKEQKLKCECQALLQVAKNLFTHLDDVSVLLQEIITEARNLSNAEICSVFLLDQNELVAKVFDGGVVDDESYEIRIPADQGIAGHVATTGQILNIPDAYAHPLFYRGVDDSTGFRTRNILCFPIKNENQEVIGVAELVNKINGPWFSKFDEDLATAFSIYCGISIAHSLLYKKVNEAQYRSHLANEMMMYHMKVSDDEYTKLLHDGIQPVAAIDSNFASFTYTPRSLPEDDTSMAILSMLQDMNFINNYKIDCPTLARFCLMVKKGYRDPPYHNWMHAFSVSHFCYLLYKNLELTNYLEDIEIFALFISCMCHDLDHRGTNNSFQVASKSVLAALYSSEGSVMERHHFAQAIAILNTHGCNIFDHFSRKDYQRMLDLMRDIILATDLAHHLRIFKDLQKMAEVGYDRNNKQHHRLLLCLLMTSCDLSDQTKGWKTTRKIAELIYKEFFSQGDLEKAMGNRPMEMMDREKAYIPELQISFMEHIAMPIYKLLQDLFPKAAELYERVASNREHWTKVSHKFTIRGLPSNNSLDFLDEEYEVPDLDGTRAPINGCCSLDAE
test readout: pIC50
Note on pIC50: it is the negative log10 of concentration, concentration in mol/L.

Write down measured pIC50 (PDE2 (Homo sapiens)) for this compound. CCCCCCC(C(C)O)n1cnc2c(N)ncnc21 (stereo not drawn) [EHNA, erythro-9-(2-hydroxy-3-nonyl)adenine]
5.70

====

Target: PDE8A (Homo sapiens, UniProt Q9Y233)
Construct: made in house; host or cells: yeast strain BJ2-54 lacking endogenous PDE activity; plasmid W48-2ADH2 (ATCC 98552); crude yeast extract
Experiment: Inhibition of recombinant PDE8A activity (32P-phosphate release from 32P-cAMP)
Assay type: biochemical
Settings: cAMP concentration of 60 nM; low Km form only; yeast extract; read-out: IC50 for PDE8
Listed here: items and their measured pIC50.
pIC50 is defined as minus the log10 of a concentration measured in mol/L.

CCCOc1ccc(NS(C)(=O)=O)cc1-c1nc2c(c(C)nn2C)c(=O)[nH]1
5.96

Determine from records and report pIC50 for CC(C)Cn1c(=O)n(C)c(=O)c2[nH]cnc21
5.34

====

Target: PDE5 (Homo sapiens, UniProt O76074)
test readout: IC50 (nM)
Entry rule: numbers only, all in nM.

Answer with reported IC50 of CCCOc1ccc(NS(C)(=O)=O)cc1-c1nc2c(c(C)nn2C)c(=O)[nH]1 [DMPPO]
16
